B1: SNAP91 (parent)
chain: FSTDAFSSPPQGASPVPESSLTAD

# Variants of: B1
# ASSAY_DETAILS: protein stability index of a GFP-peptide fusion (GPS, HEK-293T) (PSI 1-6); higher = more stable;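 also: lentivirally expressed fusions sorted by FACS into six bins by GFP to DsRed ratio, PSI derived from sequencing read proportions per bin multiplied by bin number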
# MEASUREMENT_PARAMETERS: c terminus: a fixed tail appended

{"MUTATIONS": "L21I", "protein stability index": 3.01}
{"MUTATIONS": "D24L", "protein stability index": 3.07}
{"MUTATIONS": "T22A", "protein stability index": 2.92}
{"MUTATIONS": "D4F", "protein stability index": 3.06}

// provenance: the supplement of paper PMC10567573
